FYI, the data here is from patent US20230240297A1.

- Tested on: ZEAMA Sileno
- Test details: Seed treatment with safener; post-emergence herbicide application
- Format: in vivo, maize
- Run conditions: HER dose 2 g a.i./ha, no safener, Final assessment
Endpoint: HER effect (crop damage, herbicide without safener) (%)

molecule="C=CC1(C(=O)NC2COC(C(=O)OC)C2)CC(c2cc(F)cc(F)c2)=NO1 (mixture of isomers) [Example 1.68]" measured_result=60
molecule="CCOC(=O)C1C=CC(NC(=O)C2(CF)CC(c3cc(F)cc(F)c3)=NO2)C1 (centres unmarked)" measured_result=45
molecule="C=CC1(C(=O)NC2COC(C(=O)OCCOC)C2)CC(c2cc(F)cc(F)c2)=NO1 (mixture of isomers)" measured_result=33
molecule="CC1(C(=O)NC2C=CC(C(=O)OCCSC(F)(F)F)C2)CC(c2cc(F)cc(F)c2)=NO1 (centres unmarked)" measured_result=25
molecule="CCCSCCOC(=O)C1C=CC(NC(=O)C2(C)CC(c3cc(F)cc(F)c3)=NO2)C1 (centres unmarked)" measured_result=20
molecule="C=CC1(C(=O)NC2COC(C(=O)OC)C2)CC(c2cc(F)cc(F)c2)=NO1 (centres unmarked) [Example 1.70]" measured_result=88
molecule="C=CC1(C(=O)NC2COC(C(=O)OCCCl)C2)CC(c2cc(F)cc(F)c2)=NO1 (mixture of isomers)" measured_result=28
molecule="COCCOC(=O)C1C=CC(NC(=O)C2(C)CC(c3cc(Cl)cc(C#N)c3)=NO2)C1 (centres unmarked)" measured_result=23
molecule="C=CC1(C(=O)NC2C=CC(C(=O)O)C2)CC(c2cc(F)cc(F)c2)=NO1 (centres unmarked)" measured_result=20
molecule="COC(=O)C1=CC(NC(=O)C2(C)CC(c3cc(F)cc(F)c3)=NO2)CC1 (centres unmarked)" measured_result=23
molecule="CC1(C(=O)NC2C=CC(C(=O)O)C2)CC(c2cc(F)cc(F)c2)=NO1 (centres unmarked)" measured_result=40
